Assayed system: T1, human CLDN6 fused to GFP, expressed on engineered HEK293T cells (HEK293T-CLDN6-mGFP) (human, UniProt P56747 1-220)
T1 construct: It calls residues 1-21 a signal peptide; also called Claudin-6; HEK293T-CLDN6-mGFP Artificial CLDN6+; not shown: mGFP tag
T1 sequence: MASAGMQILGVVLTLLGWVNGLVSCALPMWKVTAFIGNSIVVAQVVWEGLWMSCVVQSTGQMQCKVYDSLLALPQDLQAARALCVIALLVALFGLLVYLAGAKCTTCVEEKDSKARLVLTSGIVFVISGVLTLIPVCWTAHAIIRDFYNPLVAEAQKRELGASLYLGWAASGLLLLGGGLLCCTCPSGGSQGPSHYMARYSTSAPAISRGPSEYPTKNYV
Test details: FACS, AF647-labelled mAb, HEK293T-CLDN6-mGFP cells
Readout label: EC50 (nM)
Numbers only, in nM.

Binder	Readout label	Observed value
AB9 (antibody, V domains shown, Labelled with Alexa Fluor 647 NHS ester for FACS) VH: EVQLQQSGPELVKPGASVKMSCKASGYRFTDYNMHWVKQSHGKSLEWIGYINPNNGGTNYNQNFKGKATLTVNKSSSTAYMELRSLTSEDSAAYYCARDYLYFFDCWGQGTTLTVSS VL: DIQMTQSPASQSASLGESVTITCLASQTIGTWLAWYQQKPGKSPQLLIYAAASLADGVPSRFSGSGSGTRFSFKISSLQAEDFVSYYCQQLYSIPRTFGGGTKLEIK	EC50	2670

Respectfully, I request EC50 for each entry included below.
1. AB11 (antibody, V domains shown, Labelled with Alexa Fluor 647 NHS ester for FACS) VH: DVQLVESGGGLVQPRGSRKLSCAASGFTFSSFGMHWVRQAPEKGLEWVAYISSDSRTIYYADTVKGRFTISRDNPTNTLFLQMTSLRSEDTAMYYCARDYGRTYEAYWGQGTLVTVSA VL: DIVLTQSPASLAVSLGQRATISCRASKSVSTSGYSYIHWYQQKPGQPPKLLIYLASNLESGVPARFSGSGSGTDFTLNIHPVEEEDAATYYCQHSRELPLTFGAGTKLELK
2. AB1 (antibody, V domains shown, Labelled with Alexa Fluor 647 NHS ester for FACS) VH: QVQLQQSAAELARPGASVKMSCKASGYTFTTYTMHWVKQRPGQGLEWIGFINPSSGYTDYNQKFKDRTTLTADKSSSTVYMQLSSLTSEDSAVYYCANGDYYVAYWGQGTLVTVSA VL: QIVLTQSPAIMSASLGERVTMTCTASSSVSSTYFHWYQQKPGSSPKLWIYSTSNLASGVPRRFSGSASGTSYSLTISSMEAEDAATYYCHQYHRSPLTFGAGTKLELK

Output line:
1700
109
